The reported numbers originate from PubChem BioAssay (NCI).

system: T-47D breast; test: NCI-60 one-dose screen, 48 h; conditions: 10 µM unless noted
Compounds without any hit were thinned out: in the full panel of roughly 83,000, 20% have a hit. The source made the active and inactive calls. How the source made its calls: active means growth percent below 10; inactive means the rest.
Log the outcome using a class from active, inactive

Use the examples below as a reference point.
[[record]]
compound = "COC(=O)[C@@H](C)C[C@H](Cc1ccccc1)NC(=O)c1nc([C@@H](C[C@H](C(C)C)N(C)C(=O)[C@@H](NC(=O)[C@H]2CCCCN2C)C(C)C)OC(C)=O)sc1C(C)C"
answer_label = "inactive"

[[record]]
compound = "CC1(C)C(C(=O)c2cn(CCCCF)c3ccccc23)C1(C)C"
answer_label = "inactive"

[[record]]
compound = "CCOC(=O)C(Cc1ccc(N(CCCl)CCCl)cc1)NC(=O)C(CC(C)C)NC(C)=O (configuration not stated)"
answer_label = "inactive"

[[record]]
compound = "CC1CCCC(C[N+](C)(C)C)C1=O (configuration not stated)"
answer_label = "inactive"

[[record]]
compound = "Fc1ccc2c(c1)c(-c1nc(-c3c[nH]c4ncccc34)cs1)cn2CCCCN1CCCCC1"
answer_label = "active"

[[record]]
compound = "COc1ccc(/C=C/c2cc(OC)c(OC)c(OC)c2)cc1NC(=O)/C=C/c1ccc(F)cc1"
answer_label = "inactive"

[[record]]
compound = "C[C@]12CCc3nc(Nc4ccccc4F)sc3C1=CC[C@@H]1[C@@H]2CC[C@]2(C)C(=O)CC[C@@H]12"
answer_label = "inactive"

[[record]]
compound = "CC[C@H](C)[C@H](NC(=O)c1ccccn1)C(=O)N(C)[C@H](C[C@@H](OC(C)=O)c1nc(C(=O)N[C@@H](Cc2ccccc2)C[C@H](C)C(=O)OC)cs1)C(C)C"
answer_label = "inactive"

[[record]]
compound = "C[S+]1C=Cc2ccccc2C1c1ccc(Cl)cc1 (configuration not stated)"
answer_label = "inactive"

[[record]]
compound = "C[C@]12CC[C@H]3[C@@H](C[C@@H]4SC(Nc5ccccc5)=N[C@@]45CC(O)CC[C@]35C)[C@@H]1CCC2O (some centres not stated)"
answer_label = "inactive"


Task item: # fetch the recorded call for C[C@]12C[C@@H](CO)[C@H](O)C[C@@H]1CC[C@@H]1[C@@H]2CC[C@]2(C)[C@@H](O)CC[C@@H]12 here
Reply: inactive

Task item: Moving on to the next compound: CN(C)CC(C(=O)Cc1ccccc1)c1ccccc1 (configuration not stated)
Reply: active

Task item: Moving on to the next compound: CC(C)[C@@H]1NC(=O)[C@]2(C)CSC(=N2)c2csc(n2)CNC(=O)C[C@@H](/C=C/CCS)OC1=O
Reply: active

Task item: Moving on to the next compound: CC(C)(C)C(=O)OCOP(=O)(OCOC(=O)C(C)(C)C)C1CCCN(O)C1=O (configuration not stated)
Reply: active

Task item: Moving on to the next compound: O=C1C(N2CC2)=C(N2CC2)C(=O)C(N2CC2)=C1N1CC1
Reply: inactive

Task item: Moving on to the next compound: CC[C@H](C)[C@H](NC(=O)N[C@@H](C)c1ccccc1)C(=O)N(C)[C@H](C[C@@H](OC(C)=O)c1nc(C(=O)N[C@@H](Cc2ccccc2)C[C@H](C)C(=O)OC)cs1)C(C)C
Reply: inactive
